target: human MC4R (Homo sapiens, UniProt P32245); construct: expressed in transfected cells; assay: Functional cAMP assay (CisBio HTRF) in BHK cells expressing human MC4R; type: cell-based
Sequence (P32245 whole entry): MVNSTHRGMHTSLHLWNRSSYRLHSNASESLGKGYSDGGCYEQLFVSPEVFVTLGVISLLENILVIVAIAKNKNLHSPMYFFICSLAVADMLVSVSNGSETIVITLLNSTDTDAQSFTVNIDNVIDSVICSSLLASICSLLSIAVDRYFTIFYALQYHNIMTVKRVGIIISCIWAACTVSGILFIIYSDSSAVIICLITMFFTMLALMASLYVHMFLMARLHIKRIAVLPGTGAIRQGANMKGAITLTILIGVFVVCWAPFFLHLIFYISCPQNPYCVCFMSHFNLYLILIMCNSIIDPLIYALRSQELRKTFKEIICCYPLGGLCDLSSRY
Positions of bridges follow the written chain, without caps; N, C: chain ends. Non-standard residues stand in square brackets, D forms with d. Residues, ends and D or L forms follow the SMILES beside them. Thz = O=C(O)[C@@H]1CSCN1
Reported pEC50 by item:
pEC50 field: float, defined as -log10 of concentration (mol/L).

| compound | pEC50 |
| --- | --- |
| C[C@@H]1NC(=O)[C@H](C)NC(=O)[C@@H]2CSSC[C@H](NC(=O)[C@H](Cc3c[nH]c4ccccc34)NC(=O)[C@H](C)NC(=O)[C@@H](Cc3ccccc3)NC1=O)C(=O)N[C@@H](C)C(=O)N[C@@H](Cc1c[nH]cn1)C(=O)N[C@H](Cc1ccccc1)C(=O)N[C@@H](CCCNC(=N)N)C(=O)N[C@@H](Cc1c[nH]c3ccccc13)C(=O)N2 [Chem. 11] (cyclo(AA[dF]AWCAH[dF]RWC); disulfide 6-12) | 10.52 |
| C[C@@H]1NC(=O)[C@H](C)NC(=O)[C@@H]2CSSC[C@H](NC(=O)[C@H](Cc3c[nH]c4ccccc34)NC(=O)[C@H](C)NC(=O)[C@@H](C)NC1=O)C(=O)N[C@@H](C)C(=O)N[C@@H](Cc1c[nH]cn1)C(=O)N[C@H](Cc1ccccc1)C(=O)N[C@@H](CCCNC(=N)N)C(=O)N[C@@H](Cc1c[nH]c3ccccc13)C(=O)N2 [Chem. 88] (cyclo(AA[dA]AWCAH[dF]RWC); disulfide 6-12) | 10.70 |

// Input: C[C@@H]1NC(=O)[C@H](CCCCN)NC(=O)[C@H](CCCCN)NC(=O)[C@H](C)NC(=O)[C@@H]2CSSC[C@H](NC(=O)[C@H](Cc3c[nH]c4ccccc34)NC1=O)C(=O)N1CSC[C@H]1C(=O)N[C@@H](Cc1c[nH]cn1)C(=O)N[C@H](Cc1ccccc1)C(=O)N[C@@H](Cc1c[nH]cn1)C(=O)N[C@@H](Cc1c[nH]c3ccccc13)C(=O)N2 [Chem. 110] (cyclo(AKKAWC[Thz]H[dF]HWC); disulfide 6-12) . Output its pEC50 only.
10.30

// Input: C[C@@H]1NC(=O)[C@H](C)NC(=O)[C@H](C)NC(=O)[C@@H]2CSSC[C@H](NC(=O)[C@H](CCCNC(=N)N)NC(=O)[C@H](C)NC1=O)C(=O)N[C@@H](C)C(=O)N[C@@H](Cc1c[nH]cn1)C(=O)N[C@H](Cc1ccccc1)C(=O)N[C@@H](CCCNC(=N)N)C(=O)N[C@@H](Cc1c[nH]c3ccccc13)C(=O)N2 [Chem. 89] (cyclo(AAAARCAH[dF]RWC); disulfide 6-12) . Output its pEC50 only.
10.70

// Input: C[C@@H]1NC(=O)[C@H](C)NC(=O)[C@H](C)NC(=O)[C@@H]2CSSC[C@H](NC(=O)[C@H](Cc3c[nH]c4ccccc34)NC(=O)[C@H](C)NC1=O)C(=O)N[C@@H](C)C(=O)N[C@@H](Cc1c[nH]cn1)C(=O)N[C@H](Cc1ccccc1)C(=O)N[C@@H](CCCNC(=N)N)C(=O)N[C@@H](Cc1c[nH]c3ccccc13)C(=O)N2 [Chem. 87] (cyclo(AAAAWCAH[dF]RWC); disulfide 6-12) . Output its pEC50 only.
10.40

These entries and their values trace back to patent US20200223889A1.
